The origin of these recorded values is patent US20260028402A1.

MEASURED_TARGET: HuCD100-His (human, UniProt Q92854 22-734)
PROCEDURE_SUMMARY: cell-based or functional assay
Hi! Just check whether MDSC proportion (%) at 228.498 nM antibody is below 9%. Below gives fulfilled, equal or above gives not fulfilled.

{"columns": ["BINDER", "CATEGORY"],
 "data": [
  ["A31 (antibody, human IgG4 S228P, V domains shown, also called antibody A31; antibody molecule A31) VH: EVQLVESGGGLVQPEGSLRLSCAASGFPLDYYAIGWFRQAPGKEREGVSCIISGGSTKYSASVKGRFTISRDSANNTVYLQMNSLKPEDTAVYFCAVSWSCDLFPRDTYGWDAWGQGTLVTVSS", "not fulfilled"],
  ["A31-VHH1 (antibody, human IgG4 S228P, V domains shown, also called humanized antibody A31-VHH1) VH: EVQLVESGGGLVQPEGSLRLSCAASGFPLDYYAIGWFRQAPGKEREGVSCIISGGSTKYSASVKGRFTISRDSAKNTVYLQMNSLRAEDTAVYFCAVSWSCDLFPRDTYGWDAWGQGTLVTVSS", "not fulfilled"],
  ["A9 (antibody, human IgG4 S228P, V domains shown, also called antibody A9; antibody molecule A9) VH: QVQLVESGGGLVQAGGSLRLSCAASGFSLDYYAIGWFRQAPGKEREEVSCISSSGGSTDYADSVKGRFTISRAYAKVYLQMNSLKPEDTAVYYCAAGVSGSVCPPLIGAYWGQGTQVTVSS", "fulfilled"]
]}
